Structures can show the parent of a compound that is named as a salt.
parameter.measured: melting point

For orientation, consider the following solved cases.
CC(=O)Nc1ccc(C(=O)Nc2ccc(N3CCN4CCC3CC4)nc2)cc1; 255 °C (dec.)
CC(=O)Nc1cccc(C(=O)Nc2ccc(N3CCN4CCC3CC4)nc2)c1; 60 °C
COc1ccc(C#Cc2ccc(N3CCN4CCC3CC4)nn2)cc1 (as salt: fumaric acid salt); 208 to 209 °C
C(#Cc1ccc(N2CCN3CCC2CC3)nn1)c1cccnc1 (as salt: fumaric acid salt); 177.8 to 181.2 °C
CC(=O)Nc1cccc(C(=O)Nc2ccc(N3CCN4CCC3CC4)cc2)c1; 184 to 187 °C

Answer with reported melting point of "Nc1ccc(C#Cc2ccc(N3CCN4CCC3CC4)nn2)cc1" 181.7 to 183.4 °C

Check the records and state melting point for "CC(=O)Nc1ccc(C(=O)Nc2ccc(N3CCN4CCC3CC4)cc2)cc1" > 240 °C

Recall and state the measured melting point for Fc1cccc(C#Cc2ccc(N3CCN4CCC3CC4)nn2)c1 (as salt: fumaric acid salt) . 173.5 to 175 °C
